Just for reference, PubChem BioAssay (NCATS) is where these values come from.

- System: KB-3-1
- testSummary: Cytotoxic Profiling of Annotated Libraries Using Quantitative High-Throughput Screening (AID 1296008); further: on the % scale 0 is the no-effect control and ±100 the full control effect; nearly all actives have a fitted effect of over 60% in size
- conditionDetails: Five cell lines viability, CellTiter-Glo ATP luminescence, 48-72 h; stronger effect = lower value
Results filed as inconclusive are left out.
List of max response values.
Express your answer in %, writing the number without its unit.

Here is how some compounds turned out for max response.
{"compound": "COc1cc2c(c(OC)c1O)C(c1ccc(O)cc1)C1C(=O)OC3C(COC(=O)C1=C2)OC(CO)(OC1OC(COC(=O)/C=C/c2ccc(OC4OC(C)C(O)C(O)C4O)cc2)C(O)C(O)C1O)C3O (stereo not given)", "max response [%]": -2.91}
{"compound": "O=C(OCc1ccccc1O[C@@H]1O[C@H](CO)[C@@H](O)[C@H](O)[C@H]1O)C1(O)C=CCCC1O (stereo not given in full)", "max response [%]": 5.3}
{"compound": "C=C1Cc2c(Cl)cc3[nH]c4c5c3c2[C@@]2(O)[C@@H]1C[C@@H]2C(C)(C)O[C@H]5C1CC[C@@]2(O)[C@@]35O[C@@H]3[C@H]3OC(C)(C)[C@H]3O[C@H]5CC[C@]2(C)[C@@]41C (stereo not given in full)", "max response [%]": 6.12}

Identify max response associated with the compound C[C@H]1CCN2C[C@]34C[C@@]5(C(=O)Nc6c5ccc5c6OC=CC(C)(C)O5)C(C)(C)C3C[C@]12C(=O)N4C (stereo not given in full) -2.39

Identify max response associated with the compound C=CC(C)(O)CC/C=C(\C)COC1O[C@H](CO)[C@@H](O)[C@H](O)[C@H]1O (stereo not given in full) 1.01

Please supply the value of reported max response for the item Oc1ccc(CC2NCCc3cc(O)c(O)cc32)cc1 (stereo not given) 1.59

---

- testSummary: Primary redox qHTS assay for identification of artifact compounds. (AID 1845223);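 further: 0% = DMSO and 100% = reference compound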
- conditionDetails: Amplex Red/HRP redox cycling with DTT, fluorescence; series mostly up to 53.8 µM
Inconclusive results are not listed. The source made the active and inactive calls. The call rests on the fitted dose curve; in most records, active means well fitted activation curve with a large enough effect; inconclusive means small, poorly fitted or top-dose-only effect; inactive means flat fitted curve, though single readings scatter. Where a SMILES comes first, the peptide text is derived from it. The star is where a group is joined. AMC = Cc1cc(=O)oc2cc(N*)ccc12; Cbz = O=C(OCc1ccccc1)*
parameter: redox activity (% of DA3003)

Worked examples, 6 compounds total:
{"compound": "CC(CNS(=O)(=O)C(C)C)c1ccc(-c2ccc(C#N)cc2)cc1 (configuration not stated)", "redox activity (% of DA3003)": "inactive"}
{"compound": "Cc1cc(=O)oc2cc(NC(=O)[C@H](CCC(=O)O)NC(=O)[C@H](CC(C)C)NC(=O)[C@H](CC(C)C)NC(=O)OCc3ccccc3)ccc12 (Cbz-Leu-Leu-Glu-{AMC})", "redox activity (% of DA3003)": "inactive"}
{"compound": "Cc1cc(-n2c(=O)[nH]c(=O)n(C)c2=O)ccc1Oc1ccc(SC(F)(F)F)cc1", "redox activity (% of DA3003)": "inactive"}
{"compound": "CC1OC(O[C@H]2CC[C@@]3(C)C(CC[C@]4(C)C3CC=C3C5CC(C)(C)CC[C@]5(C(=O)OC5OC(CO)C(OC6OCC(OC7OCC(O)C(O)C7O)C(O)C6O)C(O)C5O)CC[C@]34C)C2(C)C)C(O)C(O)C1OC1OC(CO)C(O)C(OC2OC(CO)C(O)C(O)C2O)C1O (some centres not stated)", "redox activity (% of DA3003)": "2.88% [at 11.5 µM] (inactive)"}
{"compound": "CC1=C(CCC(C)O[C@@H]2O[C@H](CO)[C@@H](O)[C@H](O)[C@H]2O)C(C)(C)CC(O)C1 (some centres not stated)", "redox activity (% of DA3003)": "inactive"}
{"compound": "N#CN1CCC[C@@H](n2nc(-c3ccc(Oc4ccc(F)cc4F)cc3)c(C(N)=O)c2N)C1", "redox activity (% of DA3003)": "inactive"}

Turning now to a further compound:
Complete the entry with redox activity (% of DA3003) for CC(=O)OCC1OC(O[C@H]2CC[C@]34C[C@]35CC(O)[C@]3(C)[C@@H]([C@H](C)CC/C=C(\C)C(=O)O)C(O)C[C@@]3(C)C5CC[C@H]4C2(C)C)C(O)C(O)C1OC1OCC(O)C(O)C1O (some centres not stated) -5.4% [at 11.5 µM] (inactive)

---

- testTarget: Cytochrome P450 2C9 (Homo sapiens)
- testSummary: Cytochrome P450 family 2 subfamily C member 9 (CYP2C9) small molecule antagonists: luciferase biochemical (cell-free) qHTS assay (AID 1645842); further: nearly all actives have a fitted effect of over 55% in size; further: potency means the concentration at half of the fitted maximal effect
- conditionDetails: P450-Glo CYP2C9 enzyme assay, luciferin luminescence; series mostly up to 57.4 µM
Results filed as inconclusive are left out. Active and inactive are the calls of the source. Calls follow the shape of the dose curve; as a rule, active = well fitted inhibition curve with a large enough effect in the repeat runs; inconclusive = weak or mixed curves; inactive = no such curve, though single readings can be large or run the other way. Where a SMILES comes first, the peptide text is derived from it. The star is where a group is joined. Hexanoyl = CCCCCC(=O)*
parameter: Potency

Some compounds with known Potency results, for comparison:
{"compound": "COc1cccc(Cn2ncc3c4sc(S(C)=O)cc4n(C)c3c2=O)c1 (centres undefined)", "reportedResult": "12 µM (active)"}
{"compound": "Cc1nnc(-c2sc(NC(=O)[C@H](C(C)C)n3c(=O)[nH]c4ccccc4c3=O)nc2C)o1", "reportedResult": "9.52 µM (active)"}
{"compound": "CCCCCC(=O)N1CCC[C@H]1C(=O)N[C@@H](Cc1ccc(O)cc1)C(=O)OC (Hexanoyl-Pro-Tyr-OMe)", "reportedResult": "2.39 µM (active)"}
{"compound": "Cc1cc(C)c2nc(-c3ccccn3)cc(C(=O)Nc3ccc(S(=O)(=O)Nc4onc(C)c4C)cc3)c2c1", "reportedResult": "26.8 µM (active)"}
{"compound": "Cc1oc(S(=O)(=O)N2CCCCC2)cc1NC(=O)Nc1ccccc1", "reportedResult": "6.01 µM (active)"}

State its Potency: CCC1(O)CC2c3cc(OC)c(OC)cc3CCN2CC1CC(C)C (centres undefined) inactive

# return recorded Potency for entry `COC(=O)[C@H](Cc1cccc(C(=N)N)c1)[C@@H](C)NC(=O)c1ccc(-c2cc[n+]([O-])cc2)cc1` inactive

Answer with the recorded Potency for the compound listed here: `COc1ccc(CC(=O)NCc2ccccc2-c2ccccc2C(=O)NCCc2cccnc2)cc1` 2.68 µM (active)

Please give the documented Potency of CCCc1[nH]nc2c1C(c1cc(Cl)cc(Cl)c1O)C(C#N)=C(N)O2 (centres undefined) 12 µM (active)

---

- System: NIH3T3
- testSummary: qHTS assay to identify novel small-molecules to repurpose for Merkel cell carcinoma treatment (AID 1296009); further: nearly all actives have a fitted effect of over 60% in size
- conditionDetails: MCC and control cell lines, CellTiter-Glo viability, 72 h; at 44.8 µM (top of the series) unless noted
Records with an inconclusive call do not appear. Calls of active or inactive are those of the source. Calls follow the shape of the dose curve; as a rule, active = well fitted inhibition curve with a large enough effect; inconclusive = small, poorly fitted or top-dose-only effect; inactive = flat fitted curve, though single readings scatter.
parameter: outcome

{"compound": "CC(C)=CC1C[C@](C)(O)[C@@H]2[C@H]3CCC4[C@@]5(C)CC[C@H](O[C@@H]6OC[C@H](O)[C@H](O[C@@H]7O[C@H](CO[C@@H]8O[C@H](CO)[C@@H](O)[C@H](O)[C@H]8O)[C@@H](O)[C@H](O)[C@H]7O)[C@H]6O[C@@H]6O[C@@H](C)[C@H](O)[C@@H](O)[C@H]6O)C(C)(C)[C@@H]5CC[C@@]4(C)[C@@]34CO[C@@]2(C4)O1 (some centres undefined)", "parameter": "outcome", "reportedResult": "inactive [at 9.27 µM]"}
{"compound": "CC(=O)O[C@@H]1[C@H](O[C@@H]2OC[C@](O)(CO)[C@H]2O)[C@@H](O[C@@H]2O[C@@H](C)[C@H](O)[C@@H](O[C@@H]3O[C@H](CO)[C@@H](O)[C@H](O)[C@H]3O)[C@H]2O)[C@H](OC(=O)[C@]23CCC(C)(C)C[C@H]2C2=CCC4[C@@]5(C)C[C@H](O)[C@H](O[C@@H]6O[C@H](C(=O)O)[C@@H](O)[C@H](O)[C@H]6O)[C@@](C)(C(=O)O)C5CC[C@@]4(C)[C@]2(C)CC3)O[C@@H]1C (some centres undefined)", "parameter": "outcome", "reportedResult": "inactive [at 9.27 µM]"}

---

- Test system: HACAT
- testSummary: qHTS assay to identify novel small-molecules to repurpose for Merkel cell carcinoma treatment (AID 1296009); further: nearly all actives have a fitted effect of over 60% in size
- conditionDetails: MCC and control cell lines, CellTiter-Glo viability, 72 h; at 44.8 µM (top of the series) unless noted
- Description: MCC is a rare and aggressive neuroendocrine skin cancer with limited treatment options. Approximately 80% of MCCs have the Merkel cell polyomavirus (MCPyV) DNA integrated into the host genome (virus-positive: VP-MCC) and viral oncogenes drive oncogenesis. The remaining MCCs are virus-negative (VN-MCC) and are caused by UV mutagenesis. […] Using cell viability as a readout (CellTiter-Glo assay) we found both overlapping and distinct drugs that can be repurposed for the treatment of VP-MCC and VN-MCC. […]
Results filed as inconclusive are left out. Calls of active or inactive are those of the source. The call rests on the fitted dose curve; in most records, active means well fitted inhibition curve with a large enough effect; inconclusive means small, poorly fitted or top-dose-only effect; inactive means flat fitted curve, though single readings scatter.

{"molecule": "C/C=C1\\[C@H](O[C@@H]2O[C@H](CO)[C@@H](O)[C@H](O)[C@H]2O)OC=C(C(=O)O)[C@H]1CC(=O)OCCc1ccc(O)cc1", "testTarget": "HACAT", "outcome": "inactive [at 17.4 µM]"}
{"molecule": "CCc1cccc2c3c([nH]c12)[C@@](CC)(CC(=O)O)OCC3", "testTarget": "HACAT", "outcome": "inactive"}
{"molecule": "COC(=O)C1=CO[C@@H](O[C@@H]2O[C@H](CO[C@@H]3O[C@H](CO)[C@@H](O)[C@H](O)[C@H]3O)[C@@H](O)[C@H](O)[C@H]2O)[C@@H]2C(CO)=CC[C@H]12", "testTarget": "HACAT", "outcome": "inactive [at 17.4 µM]"}
{"molecule": "CC(C)c1ccc2c(c1)C(O)CC1C(C)(CO)CCCC21C (centres undefined)", "testTarget": "HACAT", "outcome": "inactive"}
